- systemName: Serine protease SplB (Staphylococcus aureus)
- assayMethodText: Inhibition of Staphylococcus aureus SplB protease using Ac-Trp-Glu-Leu-Gln-ACC as substrate at 200 uM after 30 mins
attributeMeasured: inhibition (%)

compound | attributeMeasured | readoutUnit | reportedMeasurement
CC(C)[C@H](NC(=O)OC(C)(C)C)C(=O)NC(CCC(=O)O)P(=O)(Oc1ccccc1)Oc1ccccc1 (mixture of isomers) | inhibition | % | 0
CC(=O)NC(CCC(=O)O)P(=O)(Oc1ccccc1)Oc1ccccc1 (racemic) | inhibition | % | 0
C[C@H](NC(=O)[C@H](Cc1ccccc1)NC(=O)OC(C)(C)C)C(=O)NC(CCC(=O)O)P(=O)(Oc1ccccc1)Oc1ccccc1 (mixture of isomers) | inhibition | % | 0
C[C@H](NC(=O)[C@H](CC(=O)O)NC(=O)OC(C)(C)C)C(=O)NC(CCC(=O)O)P(=O)(Oc1ccccc1)Oc1ccccc1 (mixture of isomers) | inhibition | % | 0
